System: EPHB4
MEASUREMENT_CONTEXT: concentration: 1 μM, replicates: in singlicate; n = 1;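 note: KINOMEscan kinase panel screen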
PARAMETER: %Inh (%)
Kindly provide the numeric value in % only, without the unit symbol.

Known %Inh results, listed for orientation:
Nc1ncc(-c2cccnc2)c2scc(-c3ccc4c(c3)CCN4C(=O)Cc3ccccc3)c12 [GSK683281]: 2
COC(=O)Nc1nc2cc(Oc3ccc(NC(=O)Nc4cc(C(F)(F)F)ccc4F)cn3)ccc2[nH]1.Cl.Cl [GW681170]: 55
Cl.Cl.NCC(NC(=O)c1cc(-c2ccccc2)c(-c2ccnc3[nH]ccc23)s1)c1ccccc1 (stereo not drawn) [GSK1321561]: 19
CN(c1ccc(NC(=O)Nc2cc(C(F)(F)F)ccc2F)cc1)c1ccnc(Nc2ccc(S(N)(=O)=O)cc2)n1 [GW809893]: 95
COc1cc(Nc2ncc3c(C)nc(-c4cc5ccccc5[nH]4)n3n2)cc(OC)c1OC [GW869516]: 47

Okay, next one:
Note to self: %Inh recorded for CC(=O)N1CCN(c2ccc(Nc3nccc(-c4sc(C(C)C)nc4-c4cccc(NS(=O)(=O)c5cccc(Cl)c5)c4)n3)cn2)CC1 [GSK1660437] was 0

###

System: PRKD2
MEASUREMENT_CONTEXT: concentration: 1 μM, replicates: in singlicate; n = 1
PARAMETER: %Inh (%)
API: value field is a number in %; no unit string.

Below: 7 compounds and their reported %Inh.
Nc1ncnc2c1nc(-c1ccccc1)n2-c1ccccc1: 0
COc1cc(Nc2nccc(N3CCC(NC(=O)Nc4cccc(C(C)=O)c4)C3)n2)cc(OC)c1OC (centres unmarked): 0
O=C(Nc1ccccc1F)NC1CCN(c2ccnc(Nc3ccc(F)cc3)n2)CC1: 2
CSc1cccc2c(-c3ccncn3)c(-c3ccc(F)cc3)nn12: 2
Cc1cccc(Nc2nc(N[C@H]3CCNC3)ncc2C(N)=O)c1.Cl: 55
CCCCc1nn2ncccc2c1-c1ccnc(Nc2ccc(N3CCN(C)CC3)cc2)n1: 55
COc1ccc(-c2coc3ccc(-c4nnc(SCc5ccc(OC)c(C(F)(F)F)c5)o4)cc23)cc1: 0

Here's the next entry for you.
Query Cc1ccc(F)c(C(=O)Nc2cccc(-c3nn4ccccc4c3-c3ccnc(Nc4cccc(F)c4)n3)c2)c1F on PRKD2; %Inh returned: 12

###

System: ASK1
Construct: gene MAP3K5
MEASUREMENT_CONTEXT: concentration: 1 μM, replicates: in singlicate; n = 1
PARAMETER: %Inh
Answer with the figure and its unit, nothing else.

O=C(Nc1cccc(-c2nn3ccccc3c2-c2ccnc(Nc3cccc(F)c3)n2)c1)c1c(F)ccc(F)c1Cl: 1%

The measured %Inh associated with c1ccc(Oc2ccc(Nc3ccnc4cc(-c5ccc(CNCCN6CCOCC6)o5)ccc34)cc2)nc1 reads 0%

Noted for COc1ccc(Nc2nccc(NCCNC(=O)c3cc4ccccc4s3)n2)cc1 : its %Inh reads 0%

###

Listed next: entries and their corresponding %Inh.
Test system: TBK1
MEASUREMENT_CONTEXT: concentration: 1 μM, replicates: in singlicate; n = 1
Dear colleague, please return just the value in %, with no unit written.

Value of measured %Inh for the entry Nc1ncc(-c2ccc3nccc(-c4ccncc4)c3c2)cc1S(=O)(=O)N1CCOCC1 : 10

%Inh in this record for Cc1ccc(C(=O)Nc2ccc(Nc3ccnc4cc(-c5nccs5)ccc34)cc2O)cc1.Cl : 0

response.value for COc1cc(Nc2nccc(N3CCC(NC(=O)c4cc5ccccc5s4)C3)n2)cc(OC)c1OC (stereo not shown) (field: %Inh) = 3

For this molecule ( CC(=O)N1CCN(c2ccc(Nc3nccc(-c4sc(C(C)C)nc4-c4cccc(NS(=O)(=O)c5cccc(Cl)c5)c4)n3)cn2)CC1 ), measured %Inh is 2

###

Reported %Inh values follow for various compounds
System: DLK
Construct: gene MAP3K12
MEASUREMENT_CONTEXT: concentration: 1 μM, replicates: in singlicate; n = 1
Response body: numeric value in %, unit text excluded.

Consider the following illustrative entries.
CCS(=O)(=O)c1ccc(OC)c(Nc2nccc(-c3c(-c4cccc(NC(=O)c5c(F)cccc5F)c4)nn4ncccc34)n2)c1: 0
COc1cccc(C(=O)Nc2cccc(Oc3ccc4nc(NC(=O)C5CC5)cn4n3)c2)c1: 18
COc1cc(Nc2nccc(-c3c(-c4cccc(NC(=O)c5c(F)cccc5F)c4)nn4ncccc34)n2)cc(OC)c1OC: 2
Nc1ncnc2c1nc(-c1ccccc1)n2-c1ccccc1: 23

// below: %Inh requested for another compound
# compound COc1cccc(NC(=O)NC2CCN(c3ccnc(Nc4cc(OC)c(OC)c(OC)c4)n3)C2)c1 (centres unmarked) ; its %Inh = 46

###

Tested on: CLK3
MEASUREMENT_CONTEXT: concentration: 1 μM, replicates: in singlicate; n = 1
PARAMETER: %Inh (%)
# unit: % | format: bare number

Example entries begin here.
Cn1cc(-c2ccc3c(c2)CCN3C(=O)Cc2cccc(F)c2)c2c(N)ncnc21 [GSK2603358]: 0
Nc1n[nH]c2cnc(-c3ccccc3)cc12 [SB-642124]: 20
COc1cccc(C(=O)Nc2cccc(Oc3ccc4nc(NC(=O)C5CC5)cn4n3)c2)c1: 5
COCCOCCOc1cc2ncc3c4ccc(C#N)cc4[nH]c3c2cc1OC: 14

The recorded %Inh for CN1CCN(CCCNc2nccc(-c3c(-c4ccc(F)cc4)nn4cc(C(F)(F)F)ccc34)n2)CC1 [GW621581] is 0

Per the record, O=c1[nH]cc(-c2ccc(N3CCOCC3)cc2)c2sc(-c3cn[nH]c3)cc12 [GSK2276055] has %Inh of 37

According to the records, this compound CC(=O)Nc1nc2cnc(Nc3cc(NC(=O)c4cccc(C5(C#N)CC5)c4Cl)ccc3C)nc2s1 displays %Inh of 0

###

Tested on: SRPK3
MEASUREMENT_CONTEXT: concentration: 1 μM, replicates: in singlicate; n = 1
%Inh for assorted molecules
Please give a number only; it is taken to be in %.

Worked set:
COc1cc(Nc2nccc(N3CCC(NC(=O)Nc4cccc(C(C)=O)c4)C3)n2)cc(OC)c1OC (stereo not drawn): 0
CCn1c(-c2nonc2N)nc2c(C#CC(C)(C)O)nc(OC[C@H](N)c3ccccc3)cc21: 24

In the following, a different molecule is considered.
Given item Cn1cc(-c2[nH]c3cc(NC(=O)[C@H](N)C4CCCCC4)cc4c3c2C=NNC4=O)cn1 , the value recorded as its %Inh is 82

###

Measured %Inh accompanies every entry in the list below.
Tested on: GSK3A
MEASUREMENT_CONTEXT: concentration: 1 μM, replicates: in singlicate; n = 1
State the answer as a number, implicitly in %.

COCCOCCOc1cc2ncc3c4ccc(C#N)cc4[nH]c3c2cc1OC: 0
CC(C)c1nc(-c2cccc(NS(=O)(=O)c3c(F)cccc3F)c2F)c(-c2ccnc(Nc3ccc(N4CCOCC4)nc3)n2)s1: 53
Cl.c1ccc(-c2ccc3c(Nc4ccc5[nH]ncc5c4)ccnc3c2)nc1: 16
Nc1ncc(-c2cccnc2)c2scc(-c3ccc4c(c3)CCN4C(=O)Cc3ccccc3)c12: 24
COc1ccc(Nc2nccc(NCCNC(=O)c3cc4ccccc4s3)n2)cc1: 7

Then this compound:
The compound listed as COc1cc(Nc2nccc(-c3c(-c4cccc(NC(=O)c5c(F)cccc5F)c4)nn4ncccc34)n2)cc(OC)c1OC shows %Inh equal to 11

###

Known %Inh of a selection of compounds
Tested on: PFTAIRE2
MEASUREMENT_CONTEXT: concentration: 1 μM, replicates: in singlicate; n = 1
Your answer is read as %, so omit the unit and give the number.

CC(C)(C)c1ccc2nccc(Nc3cccc(O)c3)c2c1 [GW856795]: 0
CSc1cccc2c(-c3ccncn3)c(-c3ccc(F)cc3)nn12 [GW514786]: 20
COc1ccc(-c2coc3ccc(-c4nnc(SCc5ccc(OC)c(C(F)(F)F)c5)o4)cc23)cc1: 0

Entry under test: COc1cc(Nc2nccc(-c3c(-c4cccc(NC(=O)c5c(F)cccc5F)c4)nn4ncccc34)n2)cc(OC)c1OC [GSK327238] . Its %Inh was 4

// recorded %Inh for NCCCC(NC(=O)c1cc(Br)c(-c2ccnc3[nH]ccc23)s1)c1ccccc1.O=C(O)C(F)(F)F.O=C(O)C(F)(F)F (centres unmarked) [GSK1287544] : 25

The value of %Inh measured for the compound Cc1cccc(Nc2nc(N[C@H]3CCNC3)ncc2C(N)=O)c1.Cl [GSK2197149] turned out to be 7

Note to self: %Inh recorded for O=C(O)C(F)(F)F.O=C(O)C(F)(F)F.O=c1[nH]ccc2nc(N[C@@H]3CCCNC3)nc(Nc3ccc(S(=O)(=O)N4CCOCC4)cc3)c12 [GSK2177277] was 61

So for c1ccc(Oc2ccc(Nc3ccnc4cc(-c5ccc(CNCCN6CCOCC6)o5)ccc34)cc2)nc1 [GW567145] , the logged %Inh turned out to be 6

Taken from paper PMC5540273.
